# PROTOCOL_TEXT: Metabolic stability in human liver microsomes assessed as intrinsic clearance preincubated for 5 mins followed by NADPH addition measured upto 60 mins by LC-MS/MS analysis
# Format: ADME, Microsome
# CONDITIONS_USED: time < 65 min, read-out: CLH
Consider the following molecules and their measured microsomal CLint readings.

Look over these answered cases.
MOLECULE | ENDPOINT | RESULT
COc1cc(NC(C(=O)c2c[nH]c3cc(OC)ccc23)c2ccc(Cl)cc2OC)cc(S(C)(=O)=O)c1 (single isomer, unassigned; (+)) | microsomal CLint | < 8 µL/min/mg
COc1cc(NC(C(=O)c2c[nH]c3ccc(C(F)(F)F)cc23)c2ccc(Cl)cc2OC)cc(S(C)(=O)=O)c1 (single isomer, unassigned; (+)) | microsomal CLint | < 8 µL/min/mg
COc1cc(NC(C(=O)c2c[nH]c3c(C)c(OC)ccc23)c2ccc(Cl)cc2OC)cc(S(C)(=O)=O)c1 (single isomer, unassigned; (+)) | microsomal CLint | < 8 µL/min/mg
COc1cc(NC(C(=O)c2c[nH]c3cc(F)c(C)cc23)c2ccc(Cl)cc2OC)cc(S(C)(=O)=O)c1 (single isomer, unassigned; (+)) | microsomal CLint | < 8 µL/min/mg

For record COc1cc(NC(C(=O)c2c[nH]c3ccccc23)c2ccc(F)cc2OC)cc(OCCO)c1 (single isomer, unassigned; (+)) the listed microsomal CLint is 8 µL/min/mg
